Test system: drug resistant strains of Acinetobacter baumannii
procedure.text: anti-drug resistant strains of Acinetobacter baumannii (MIC)
Assay type: cell-based
test.context: resistant strain of Acinetobacter baumannii no. 17
Catalogue of MIC values
readout.label: MIC (µg/mL)

>>> result_number("Nc1ccc(NNC(=O)[C@@H]2Cc3ccccc3N2)cc1")
2
>>> result_number("O=C(NNc1ccccc1)[C@@H]1Cc2ccccc2N1")
4
>>> result_number("O=C(NNc1ccc(F)cc1)[C@@H]1Cc2ccccc2N1")
2
